- experimental-details: Luminescence lifetime by TCSPC (Example 1)
- Format: physicochemical
- settings: THF (7.6); TCSPC 370 nm pulsed LED

# structure-smiles, 1τ
records = [
    ("CCCCCCOc1ccc(-n2c(=O)c3cc4cc5c(-c6ccccc6)c6c(=O)n(-c7ccc(OCCCCCC)cc7)c(=O)c6cc5cc4c(-c4ccccc4)c3c2=O)cc1", "<0.20 ns"),
    ("CCCCCCCCn1c(=O)c2c(-c3ccccc3)c3cc4c(-c5ccccc5)c5c(=O)n(CCCCCCCC)c(=O)c5c(-c5ccccc5)c4cc3c(-c3ccccc3)c2c1=O", "3.03 ns"),
    ("CCCCCCOc1ccc(-n2c(=O)c3cc4cc5c(-c6ccc(C#N)cc6)c6c(=O)n(-c7ccc(OCCCCCC)cc7)c(=O)c6cc5cc4c(-c4ccc(C#N)cc4)c3c2=O)cc1", "<0.20 ns"),
    ("CCCCCCCCn1c(=O)c2cc3cc4c(-c5ccccc5)c5c(=O)n(CCCCCCCC)c(=O)c5cc4cc3c(-c3ccccc3)c2c1=O", "6.71 ns"),
]

* * *

- experimental-details: Radiative quantum yield against standards (Example 1)
- Assay type: physicochemical
- settings: Acetone (20.1)

# compound, Φr
data = [
    ("CCCCCCCCn1c(=O)c2c(-c3ccccc3)c3cc4c(-c5ccccc5)c5c(=O)n(CCCCCCCC)c(=O)c5c(-c5ccccc5)c4cc3c(-c3ccccc3)c2c1=O [TPO]", 0.21),
    ("CCCCCCOc1ccc(-n2c(=O)c3cc4cc5c(-c6ccc(C#N)cc6)c6c(=O)n(-c7ccc(OCCCCCC)cc7)c(=O)c6cc5cc4c(-c4ccc(C#N)cc4)c3c2=O)cc1 [DC]", 0.0062),
    ("CCCCCCOc1ccc(-n2c(=O)c3c(-c4ccccc4)c4cc5c(-c6ccccc6)c6c(=O)n(-c7ccc(OCCCCCC)cc7)c(=O)c6c(-c6ccccc6)c5cc4c(-c4ccccc4)c3c2=O)cc1 [TP]", 0.011),
]

* * *

- experimental-details: Radiative quantum yield against standards (Example 1)
- Type: physicochemical
- settings: ACN (38.8)

# compound, Φr
data = [
    ("CCCCCCCCn1c(=O)c2c(-c3ccccc3)c3cc4c(-c5ccccc5)c5c(=O)n(CCCCCCCC)c(=O)c5c(-c5ccccc5)c4cc3c(-c3ccccc3)c2c1=O [TPO]", 0.24),
    ("CCCCCCOc1ccc(-n2c(=O)c3cc4cc5c(-c6ccc(C#N)cc6)c6c(=O)n(-c7ccc(OCCCCCC)cc7)c(=O)c6cc5cc4c(-c4ccc(C#N)cc4)c3c2=O)cc1 [DC]", 0.0051),
    ("CCCCCCOc1ccc(-n2c(=O)c3c(-c4ccccc4)c4cc5c(-c6ccccc6)c6c(=O)n(-c7ccc(OCCCCCC)cc7)c(=O)c6c(-c6ccccc6)c5cc4c(-c4ccccc4)c3c2=O)cc1 [TP]", 0.0080),
    ("CCCCCCOc1ccc(-n2c(=O)c3cc4cc5c(-c6ccc(OC)cc6)c6c(=O)n(-c7ccc(OCCCCCC)cc7)c(=O)c6cc5cc4c(-c4ccc(OC)cc4)c3c2=O)cc1 [DM]", 0.0087),
    ("CCCCCCCCn1c(=O)c2cc3cc4c(-c5ccccc5)c5c(=O)n(CCCCCCCC)c(=O)c5cc4cc3c(-c3ccccc3)c2c1=O [DPO]", 0.46),
]

* * *

- experimental-details: Radiative quantum yield against standards (Example 1)
- Assay type: physicochemical
- settings: THF (7.6)
Returns one of fulfilled or not fulfilled; fulfilled when Φr is >= 0.03.

# molecule, assigned-class
rows = [
    ("CCCCCCOc1ccc(-n2c(=O)c3c(-c4ccccc4)c4cc5c(-c6ccccc6)c6c(=O)n(-c7ccc(OCCCCCC)cc7)c(=O)c6c(-c6ccccc6)c5cc4c(-c4ccccc4)c3c2=O)cc1 [TP]", "not fulfilled"),
    ("CCCCCCCCn1c(=O)c2c(-c3ccccc3)c3cc4c(-c5ccccc5)c5c(=O)n(CCCCCCCC)c(=O)c5c(-c5ccccc5)c4cc3c(-c3ccccc3)c2c1=O [TPO]", "fulfilled"),
    ("CCCCCCOc1ccc(-n2c(=O)c3cc4cc5c(-c6ccccc6)c6c(=O)n(-c7ccc(OCCCCCC)cc7)c(=O)c6cc5cc4c(-c4ccccc4)c3c2=O)cc1 [DP]", "not fulfilled"),
    ("CCCCCCOc1ccc(-n2c(=O)c3cc4cc5c(-c6ccc(OC)cc6)c6c(=O)n(-c7ccc(OCCCCCC)cc7)c(=O)c6cc5cc4c(-c4ccc(OC)cc4)c3c2=O)cc1 [DM]", "not fulfilled"),
    ("CCCCCCOc1ccc(-n2c(=O)c3cc4cc5c(-c6ccc(C#N)cc6)c6c(=O)n(-c7ccc(OCCCCCC)cc7)c(=O)c6cc5cc4c(-c4ccc(C#N)cc4)c3c2=O)cc1 [DC]", "not fulfilled"),
    ("CCCCCCCCn1c(=O)c2cc3cc4c(-c5ccccc5)c5c(=O)n(CCCCCCCC)c(=O)c5cc4cc3c(-c3ccccc3)c2c1=O [DPO]", "fulfilled"),
]

* * *

- experimental-details: Absorption spectra of anthracene diimides in solvents of increasing polarity (Example 1)
- Assay type: physicochemical
- settings: THF (7.6)
molecules and their reported Abs. λmax

# molecule, unit-name, Abs. λmax
data = [
    ("CCCCCCCCn1c(=O)c2cc3cc4c(-c5ccccc5)c5c(=O)n(CCCCCCCC)c(=O)c5cc4cc3c(-c3ccccc3)c2c1=O [DPO]", "nm", 421),
    ("CCCCCCOc1ccc(-n2c(=O)c3cc4cc5c(-c6ccccc6)c6c(=O)n(-c7ccc(OCCCCCC)cc7)c(=O)c6cc5cc4c(-c4ccccc4)c3c2=O)cc1 [DP]", "nm", 422),
    ("CCCCCCOc1ccc(-n2c(=O)c3cc4cc5c(-c6ccc(OC)cc6)c6c(=O)n(-c7ccc(OCCCCCC)cc7)c(=O)c6cc5cc4c(-c4ccc(OC)cc4)c3c2=O)cc1 [DM]", "nm", 426),
]

* * *

- experimental-details: Luminescence lifetime by TCSPC (Example 1)
- Type: physicochemical
- settings: C2H4Cl2 (10.7); TCSPC 370 nm pulsed LED

# structure-smiles, result-modifier, 1τ (ns)
rows = [
    ("CCCCCCOc1ccc(-n2c(=O)c3cc4cc5c(-c6ccc(OC)cc6)c6c(=O)n(-c7ccc(OCCCCCC)cc7)c(=O)c6cc5cc4c(-c4ccc(OC)cc4)c3c2=O)cc1", "=", 0.34),
    ("CCCCCCOc1ccc(-n2c(=O)c3cc4cc5c(-c6ccccc6)c6c(=O)n(-c7ccc(OCCCCCC)cc7)c(=O)c6cc5cc4c(-c4ccccc4)c3c2=O)cc1", "<", 0.20),
    ("CCCCCCOc1ccc(-n2c(=O)c3cc4cc5c(-c6ccc(C#N)cc6)c6c(=O)n(-c7ccc(OCCCCCC)cc7)c(=O)c6cc5cc4c(-c4ccc(C#N)cc4)c3c2=O)cc1", "=", 0.21),
    ("CCCCCCCCn1c(=O)c2c(-c3ccccc3)c3cc4c(-c5ccccc5)c5c(=O)n(CCCCCCCC)c(=O)c5c(-c5ccccc5)c4cc3c(-c3ccccc3)c2c1=O", "=", 3.19),
    ("CCCCCCCCn1c(=O)c2cc3cc4c(-c5ccccc5)c5c(=O)n(CCCCCCCC)c(=O)c5cc4cc3c(-c3ccccc3)c2c1=O", "=", 5.60),
]

* * *

- experimental-details: Absorption spectra of anthracene diimides in solvents of increasing polarity (Example 1)
- Assay type: physicochemical
- settings: ACN (38.8)

# compound, Abs. λmax / nm
measured = [
    ("CCCCCCCCn1c(=O)c2cc3cc4c(-c5ccccc5)c5c(=O)n(CCCCCCCC)c(=O)c5cc4cc3c(-c3ccccc3)c2c1=O [DPO]", 423),
    ("CCCCCCOc1ccc(-n2c(=O)c3cc4cc5c(-c6ccc(OC)cc6)c6c(=O)n(-c7ccc(OCCCCCC)cc7)c(=O)c6cc5cc4c(-c4ccc(OC)cc4)c3c2=O)cc1 [DM]", 427),
    ("CCCCCCOc1ccc(-n2c(=O)c3c(-c4ccccc4)c4cc5c(-c6ccccc6)c6c(=O)n(-c7ccc(OCCCCCC)cc7)c(=O)c6c(-c6ccccc6)c5cc4c(-c4ccccc4)c3c2=O)cc1 [TP]", 431),
    ("CCCCCCOc1ccc(-n2c(=O)c3cc4cc5c(-c6ccc(C#N)cc6)c6c(=O)n(-c7ccc(OCCCCCC)cc7)c(=O)c6cc5cc4c(-c4ccc(C#N)cc4)c3c2=O)cc1 [DC]", 423),
    ("CCCCCCCCn1c(=O)c2c(-c3ccccc3)c3cc4c(-c5ccccc5)c5c(=O)n(CCCCCCCC)c(=O)c5c(-c5ccccc5)c4cc3c(-c3ccccc3)c2c1=O [TPO]", 428),
]

* * *

- experimental-details: Radiative quantum yield against standards (Example 1)
- Format: physicochemical
- settings: Acetone (20.1)
parameter: Φr

# structure-smiles, parameter, endpoint-result
rows = [
    ("CCCCCCOc1ccc(-n2c(=O)c3cc4cc5c(-c6ccc(OC)cc6)c6c(=O)n(-c7ccc(OCCCCCC)cc7)c(=O)c6cc5cc4c(-c4ccc(OC)cc4)c3c2=O)cc1", "Φr", 0.011),
    ("CCCCCCCCn1c(=O)c2cc3cc4c(-c5ccccc5)c5c(=O)n(CCCCCCCC)c(=O)c5cc4cc3c(-c3ccccc3)c2c1=O", "Φr", 0.37),
    ("CCCCCCOc1ccc(-n2c(=O)c3cc4cc5c(-c6ccccc6)c6c(=O)n(-c7ccc(OCCCCCC)cc7)c(=O)c6cc5cc4c(-c4ccccc4)c3c2=O)cc1", "Φr", 0.0082),
]
